- target-or-test-system: CYP2D6 (Homo sapiens)
- Construct: from tissue; host or cells: human liver microsomes
- Sequence (P10635 whole entry): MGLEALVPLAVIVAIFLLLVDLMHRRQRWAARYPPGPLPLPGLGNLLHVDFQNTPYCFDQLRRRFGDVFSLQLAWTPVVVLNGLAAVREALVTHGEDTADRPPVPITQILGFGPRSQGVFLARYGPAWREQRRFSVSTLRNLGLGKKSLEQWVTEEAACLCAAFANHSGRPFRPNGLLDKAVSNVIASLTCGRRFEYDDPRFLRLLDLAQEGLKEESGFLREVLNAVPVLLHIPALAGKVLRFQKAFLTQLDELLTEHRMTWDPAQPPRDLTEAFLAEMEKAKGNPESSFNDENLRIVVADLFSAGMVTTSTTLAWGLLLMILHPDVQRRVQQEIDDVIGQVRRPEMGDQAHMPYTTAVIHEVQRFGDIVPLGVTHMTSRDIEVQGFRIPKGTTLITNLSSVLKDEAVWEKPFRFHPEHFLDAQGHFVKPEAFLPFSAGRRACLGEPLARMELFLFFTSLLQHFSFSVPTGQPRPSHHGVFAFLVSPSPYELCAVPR
- test-details: Inhibitory effect on P450 enzymes in vitro (human liver microsomes), CYP2D6
- Format: in vitro ADME
- recorded-conditions: probe dextromethorphan, final concentration 10 µM, substrate dextromethorphan, read-out: % inhibition rate CYP2D6 (dextromethorphan)
observed-property: inhibition at 20 min, 10 µM (%)
Write down the numeric answer in % and omit the unit.

Past entries and their recorded results:
COc1cc2c(cc1S(=O)(=O)Nc1noc3cc(Cn4cccn4)nc(OC)c13)OCC2 [Example 59]: 4.62
COc1ccc2ccoc2c1S(=O)(=O)Nc1noc2cc(Cn3cccn3)nc(OC)c12 [Example 10]: 6.03

Here is the next item to consider.
Noted for COc1cc2c(cc1S(=O)(=O)Nc1noc3cc(Cn4cccn4)nc(OC)c13)CCCC2 [Example 2] : its inhibition at 20 min, 10 µM reads 5.38
